tested on: HCT-116 colon; assay: NCI-60 one-dose screen, 48 h; conditions: 10 µM unless noted
Compounds without any hit were thinned out: in the full panel of roughly 83,000, 20% have a hit. The source made the active and inactive calls. How the source made its calls: active means growth percent below 10; inactive means the rest.
Outcome field: choose from YES (active), NO (inactive)

CNC1=C([N+](=O)[O-])C(c2ccc(OC)cc2)C(C#N)=C(c2ccc[nH]2)O1 (configuration not stated)	NO
COC(=O)c1nc(-c2ccccc2)oc1S(=O)(=O)N1CCN(c2ccc(OC)cc2)CC1	NO
COc1ccc(C2=C/C(=C\c3ccccc3O)C(=O)N2Cc2ccccc2)cc1	NO
[2H]C([2H])([2H])Oc1c(F)cccc1/C=C/C(=O)/C=C(O)/C=C/c1cccc(F)c1OC([2H])([2H])[2H]	NO
C/C(=C(\c1ccc(OCCCN(C)C)cc1)c1ccc(OC(=O)Cc2ccccc2)cc1)c1ccc(Cl)cc1	NO

Query string: # fetch the recorded call for COc1cc(OCc2cccc(-c3ccccc3)c2C)cc(OC)c1CN1CCCCC1C(=O)NCCOCCOCCN (configuration not stated) here
Result string: NO

Query string: # fetch the recorded call for CN1CCN(Cn2nc(-c3cc(Cl)cc(Cl)c3Cl)oc2=S)CC1 here
Result string: NO

Query string: # fetch the recorded call for c1ccc2cc(Cn3cc[n+](Cc4ccc5ccccc5c4)c3)ccc2c1 here
Result string: NO

Query string: # fetch the recorded call for CCN1C(=O)N(CC)C2C1NN=c1s/c(=C3\C(=O)N(C)c4ccccc43)c(=O)n12 (configuration not stated) here
Result string: YES

Query string: # fetch the recorded call for CCC(C)C(N)C(=O)NC(CC(C)C)C(=O)N1CCCC1C(=O)NC(Cc1c[nH]c2ccccc12)C(=O)NC(CCCCN)C(=O)NC(Cc1c[nH]c2ccccc12)C(=O)N1CCCC1C(=O)NC(Cc1c[nH]c2ccccc12)C(=O)NC(Cc1c[nH]c2ccccc12)C(=O)N1CCCC1C(=O)NC(Cc1c[nH]c2ccccc12)C(=O)NC(CCCNC(=N)N)C(=O)NC(CCCNC(=N)N)C(N)=O (configuration not stated) here
Result string: NO

Query string: # fetch the recorded call for Cc1ccc(-c2nc(C#N)c(S(=O)(=O)n3nc(C)cc3N)o2)cc1 here
Result string: NO

Query string: # fetch the recorded call for O=C(CSc1nc(-c2ccccc2)cn1-c1ccc(Cl)cc1)c1ccc([N+](=O)[O-])cc1 here
Result string: NO

Query string: # fetch the recorded call for CCOC(=O)c1c(C)nc2c(c1N)C(=O)C(=O)N2CCc1ccc(OC)c(OC)c1 here
Result string: NO

Query string: # fetch the recorded call for CCOC(=O)c1c(Nc2nc3ccccc3s2)sc2c1CCC(=O)C2 here
Result string: NO

Query string: # fetch the recorded call for CCN1C(=O)N(CC)C2C1NN=c1s/c(=C\c3ccc([N+](=O)[O-])cc3)c(=O)n12 (configuration not stated) here
Result string: YES

Query string: # fetch the recorded call for COc1ccc(-n2c(=O)n(-c3ccc(-c4nc5ccc(F)cc5s4)cc3)c(=O)c3cccnc32)cc1 here
Result string: NO

Query string: # fetch the recorded call for COC(=O)c1sc(-c2ccc(C)cc2)cc1O here
Result string: NO

====

tested on: NCI-H226 lung; assay: NCI-60 one-dose screen, 48 h (100 = growth as untreated, 0 = no growth, -100 = all killed); settings: 10 µM unless noted
Compounds without any hit were thinned out: in the full panel of roughly 83,000, 20% have a hit.
PARAMETER: growth (%)
Numbers only here, please. The scale is %.

COc1ccc(CNc2c3ccccc3nc3ccccc23)cc1OC	27.9

Query string: Which growth reading was recorded for the compound CC/C(=C(/c1ccc(Cl)cc1)c1ccc(OCCCN(C)C)cc1)c1ccc(OC)cc1 ?
Result string: 104

Query string: Which growth reading was recorded for the compound COc1ccc2c(c1)c(-c1nc(-c3cn(C)c4ccncc34)cs1)cn2C ?
Result string: 113

Query string: Which growth reading was recorded for the compound COC1CC(O)C2=C(CC3C(/C(C)=C\CC=C(C)C)CCC3(C)O2)C1=O (stereo unspecified) ?
Result string: 101

====

test system: RPMI-8226 leukemia; experiment: NCI-60 one-dose screen, 48 h (100 = growth as untreated, 0 = no growth, -100 = all killed); conditions: 10 µM unless noted
The panel holds about 83,000 compounds, 20% with a hit somewhere; the sample as a whole holds those more often. Active and inactive are the calls of the source. How the source made its calls: active means growth percent below 10; inactive means the rest.
PARAMETER: growth

For orientation, consider the following solved cases.
CCOC(=O)/C=C1\S/C(=N\Nc2cc(=O)[nH]c3ccc(OC)cc23)N(c2ccccc2)C1=O	87.2% (inactive)
O=C(c1ccc(F)cc1)C1CCN(CCn2c(=O)[nH]c3ccccc3c2=O)CC1	104% (inactive)
Cc1ccc(Nc2oc(-c3ccccc3)nc2[P+](c2ccccc2)(c2ccccc2)c2ccccc2)cc1	-38.3% (active)

Query string: Which growth reading was recorded for the compound CC(C)(C)CC(C)(C)Nc1c(-c2c(O)c3ccccc3oc2=O)nc2sccn12 ?
Result string: 97.7% (inactive)

Query string: Which growth reading was recorded for the compound Oc1cccc2c1NCCC2 ?
Result string: 14.9% (inactive)

Query string: Which growth reading was recorded for the compound O=C1C2C(c3cccs3)C=C(c3ccc(Cl)cc3)N2C(=S)N1c1ccccc1 (stereo not given) ?
Result string: 99.3% (inactive)

====

List of growth values.
system: OVCAR-5 ovarian; test: NCI-60 one-dose screen, 48 h (100 = growth as untreated, 0 = no growth, -100 = all killed); settings: 10 µM unless noted
Compounds without any hit were thinned out: in the full panel of roughly 83,000, 20% have a hit.
Numbers only here, please. The scale is %.

For orientation, consider the following solved cases.
O=C(Nc1ncc(Cc2ccc(Cl)cc2)s1)c1ccc2c(c1)OCCO2	37.1
C=C1C(=O)O[C@H]2[C@H]1CC/C(CNC(=O)/C=C/c1cc(OC)c(OC)c(OC)c1)=C\CC[C@@]1(C)O[C@@H]21	15.9
O=C1/C(=C/c2ccccc2)COc2ccc(O)cc21	104

Query string: Which growth reading was recorded for the compound COc1cc(C2CC(c3cccc(Nc4ccncc4)c3)=Nc3c(N)ncnc3N2)cc(OC)c1OC (stereo not given) ?
Result string: 111

Query string: Which growth reading was recorded for the compound CN(C)c1ccc(/C=N/NC(=O)CSc2nc3sc4c(c3c(=O)n2-c2ccccc2)CCCCC4)cc1 ?
Result string: 50.7

====

system: HOP-62 NSCLC; assay: NCI-60 one-dose screen, 48 h (100 = growth as untreated, 0 = no growth, -100 = all killed); settings: 10 µM unless noted
The panel holds about 83,000 compounds, 20% with a hit somewhere; the sample as a whole holds those more often.
PARAMETER: growth (%)
Numbers only here, please. The scale is %.

For orientation, consider the following solved cases.
CCCCN(CCC#N)C(N)=O	105
C=C(C)Cn1c(SCC(=O)c2cccs2)nc2sc3c(c2c1=O)CCCC3	73.5

Query string: Which growth reading was recorded for the compound N#C/C(Sc1nc2sc3c(c2c(=O)n1Cc1ccccc1)CCCC3)=C1/SC=C(c2ccc(Cl)cc2)N1c1ccccc1 ?
Result string: 78.8

Query string: Which growth reading was recorded for the compound Cc1ccc(Nc2oc(-c3ccccc3)nc2[P+](c2ccccc2)(c2ccccc2)c2ccccc2)cc1 ?
Result string: -51.1

Query string: Which growth reading was recorded for the compound COc1cc2cc(Oc3ccc(NC(=O)Nc4ccc(Cl)c(Cl)c4)cc3)c(C)nc2cc1OCCN1CCCCC1 ?
Result string: 107

Query string: Which growth reading was recorded for the compound CN(CCNc1ccc(C(=N)N)cc1)c1ccc(C(=N)N)cc1 ?
Result string: 112

Query string: Which growth reading was recorded for the compound CSc1nc(N)c2c(n1)NC(c1ccccc1)C1CCc3ccccc3C1=N2 (centres undefined) ?
Result string: 64.4

Query string: Which growth reading was recorded for the compound COc1cc(/C=C/c2cc(/C=C/c3ccc(O)c(OC)c3)n(C(=O)Nc3ccc(C)cc3C)n2)ccc1O ?
Result string: -35.7

Query string: Which growth reading was recorded for the compound Nc1nc(N)c2c(n1)NC(c1ccc3c(c1)OCO3)CC(c1cccc(Nc3ccncc3)c1)=N2 (centres undefined) ?
Result string: 90.4

====

tested on: COLO 205 colon; test: NCI-60 one-dose screen, 48 h (100 = growth as untreated, 0 = no growth, -100 = all killed); conditions: 10 µM unless noted
About 83,000 compounds went through this panel and 20% of them were active in at least one assay; those are over-represented in the sample as a whole. The source made the active and inactive calls. Rule for the calls: active = growth percent below 10; inactive = the rest.
List of growth values.

CCCCCC(C)(O)C(C(=O)O)c1ccccc1 (stereo unspecified)	118% (inactive)
CCCCN(CCC#N)C(N)=O	120% (inactive)
CN1C(=O)N(C)C2C1NN=c1s/c(=C\c3ccc(F)cc3)c(=O)n12 (stereo unspecified)	12.5% (inactive)
COc1cc(-c2c(-c3ccccc3)c[nH]c2C(=O)NCCCO)c(OC)c2c1OCO2	114% (inactive)

Query string: Which growth reading was recorded for the molecule COc1ccccc1/C=C/C1=C(C)CCC(c2ccccc2OC)C1C (stereo unspecified) ?
Result string: -45.3% (active)

Query string: Which growth reading was recorded for the molecule Cc1ccc(S(=O)(=O)c2nc(-c3ccccc3)oc2S(C)=O)cc1 (stereo unspecified) ?
Result string: -79.3% (active)
